System Tested: UniProt:P57059
Sequence (P57059 whole entry, species assumed): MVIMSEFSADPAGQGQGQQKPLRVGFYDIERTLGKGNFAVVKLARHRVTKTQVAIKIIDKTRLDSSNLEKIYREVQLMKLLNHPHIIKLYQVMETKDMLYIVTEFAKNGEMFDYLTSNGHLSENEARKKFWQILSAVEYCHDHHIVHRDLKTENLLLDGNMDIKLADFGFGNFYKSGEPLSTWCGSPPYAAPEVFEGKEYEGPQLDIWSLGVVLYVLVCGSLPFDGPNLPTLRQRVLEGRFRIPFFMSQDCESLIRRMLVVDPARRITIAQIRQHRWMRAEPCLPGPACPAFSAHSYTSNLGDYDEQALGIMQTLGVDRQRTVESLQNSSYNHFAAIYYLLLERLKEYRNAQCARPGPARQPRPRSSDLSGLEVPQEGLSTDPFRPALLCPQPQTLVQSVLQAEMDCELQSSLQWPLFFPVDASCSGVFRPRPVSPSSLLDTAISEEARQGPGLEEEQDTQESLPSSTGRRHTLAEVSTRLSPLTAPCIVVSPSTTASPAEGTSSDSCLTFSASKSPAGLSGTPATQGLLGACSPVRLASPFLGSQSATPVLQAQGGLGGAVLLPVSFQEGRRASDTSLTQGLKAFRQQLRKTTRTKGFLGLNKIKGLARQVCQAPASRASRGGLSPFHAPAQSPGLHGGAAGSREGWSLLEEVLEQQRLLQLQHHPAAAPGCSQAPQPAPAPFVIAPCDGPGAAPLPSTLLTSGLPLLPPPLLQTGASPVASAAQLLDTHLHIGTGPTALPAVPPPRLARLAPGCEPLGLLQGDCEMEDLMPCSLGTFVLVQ
Provide the reported IC50 of each item.
Numbers only, in nM.

Known results for molecules:
Molecule | IC50, nM
COCC1CCC[C@@](N)(COc2cc(-c3cnc4ccccn34)cc(SC)c2C#N)C1 (mixture of isomers) | 0.7
CSc1cc(-c2cnc3ccc(N4CCCC4)c(C#N)n23)cc(OCC2(N)CCCC2)c1C#N | 0.2
COc1ccc2ncc(-c3cc(OCC4(N)CCCCC4)c(C#N)c(SC)c3)n2c1C#N | 0.9
CSc1cc(-c2cnc3cccc(C#N)n23)cc(OCC2(N)CCCC2)c1C#N | 1.2

Below are 2 molecules. Give each one its IC50.
1. COc1cc(C#N)n2c(-c3cc(OCC4(N)CCCC4)c(C#N)c(SC)c3)cnc2c1
2. CSc1cc(-c2cnc3ccccn23)cc(OC[C@@]2(N)CCC[C@H](C(F)(F)F)C2)c1C#N.CSc1cc(-c2cnc3ccccn23)cc(OC[C@]2(N)CCC[C@@H](C(F)(F)F)C2)c1C#N (mixture of isomers) [Example 33B]

[1.2, 10.9]
